# TARGET_SYSTEM: Edg-1/S1P1 receptor (Homo sapiens)
# Construct: expressed in transfected cells; host or cells: human osteogenic sarcoma U2OS cells: Edg-1 Transfluor U2OS WT Clone #37 (assay I), Edg-1 Transfluor U2OS Clone #3 (assay II)
# ASSAY_SUMMARY: In vitro cell based receptor activation assay - Transfluor assay (assay I or II; beta-arrestin GFP relocalization after S1P stimulation)
# SETUP_CONDITIONS: at 3.50 μM (titrated from top concentration 10 μM)
TEST_READOUT: inhibition at 3.5 µM (%)

{"SMILES_STRING": "CCn1c([C@@H](C)NS(=O)(=O)c2ccc(F)c(CN)c2)nc2ccc(C(F)(F)F)cc21", "RESULT_UNIT": "%", "inhibition at 3.5 µM": 95}
{"SMILES_STRING": "CCn1c([C@@H](C)NS(=O)(=O)c2ccc([N+](=O)[O-])cc2)nc2ccc(C(F)(F)F)cc21", "RESULT_UNIT": "%", "inhibition at 3.5 µM": 92.4}
{"SMILES_STRING": "CCn1c([C@@H](C)NS(=O)(=O)c2ccc(NN)nc2)nc2ccc(C(F)(F)F)cc21", "RESULT_UNIT": "%", "inhibition at 3.5 µM": 77.1}
{"SMILES_STRING": "CCn1c([C@@H](C)NS(=O)(=O)c2ccc(OC(C)C)cc2)nc2ccc(C(F)(F)F)cc21", "RESULT_UNIT": "%", "inhibition at 3.5 µM": 80.7}
{"SMILES_STRING": "CCn1c([C@@H](C)NS(=O)(=O)c2ccc(C#N)cc2)nc2cnccc21", "RESULT_UNIT": "%", "inhibition at 3.5 µM": 89.4}
{"SMILES_STRING": "CCn1c(C(C)(C)NS(=O)(=O)c2ccc(C#N)cc2)nc2cnc(C(F)(F)F)cc21", "RESULT_UNIT": "%", "inhibition at 3.5 µM": 77.3}
{"SMILES_STRING": "CCn1c([C@@H](C)NS(=O)(=O)c2ccc(C#N)cc2)nc2ncc(C(F)(F)F)cc21", "RESULT_UNIT": "%", "inhibition at 3.5 µM": 91.1}
{"SMILES_STRING": "CCn1c([C@@H](C)NS(=O)(=O)c2ccc(Cl)cc2)nc2cnc(C3CC3)cc21", "RESULT_UNIT": "%", "inhibition at 3.5 µM": 88.2}

----------
# TARGET_SYSTEM: Edg-1/S1P1 receptor (Homo sapiens, UniProt P21453)
# Construct: expressed in transfected cells; host or cells: human osteogenic sarcoma U2OS cells: Edg-1 Transfluor U2OS WT Clone #37 (assay I), Edg-1 Transfluor U2OS Clone #3 (assay II)
# Sequence (P21453 whole entry): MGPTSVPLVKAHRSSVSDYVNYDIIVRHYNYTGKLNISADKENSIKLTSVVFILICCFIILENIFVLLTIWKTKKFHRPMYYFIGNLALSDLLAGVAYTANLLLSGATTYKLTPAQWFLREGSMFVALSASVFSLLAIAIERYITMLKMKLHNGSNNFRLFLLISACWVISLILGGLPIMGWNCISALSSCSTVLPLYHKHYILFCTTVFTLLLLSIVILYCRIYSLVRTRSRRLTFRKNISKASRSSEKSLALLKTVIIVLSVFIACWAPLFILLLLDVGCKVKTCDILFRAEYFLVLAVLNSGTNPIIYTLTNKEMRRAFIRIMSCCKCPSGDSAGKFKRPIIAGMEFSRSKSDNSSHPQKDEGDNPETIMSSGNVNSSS
# ASSAY_SUMMARY: In vitro cell based receptor activation assay - Transfluor assay (assay I or II; beta-arrestin GFP relocalization after S1P stimulation)
# SETUP_CONDITIONS: at 3.50 μM (titrated from top concentration 10 μM)
TEST_READOUT: inhibition at 3.5 µM (%)

{"COMPOUND": "CCn1c([C@@H](C)NS(=O)(=O)c2ccc(C(=O)OC)n2C)nc2ccc(C(F)(F)F)cc21", "TEST_READOUT": "inhibition at 3.5 µM", "RESULT_UNIT": "%", "VAL": 97.5}
{"COMPOUND": "CCn1c([C@@H](C)NS(=O)(=O)c2cc(C)nc(C)c2)nc2ccc(C(F)(F)F)cc21", "TEST_READOUT": "inhibition at 3.5 µM", "RESULT_UNIT": "%", "VAL": 90.3}
{"COMPOUND": "CCn1c(C(C)(C)NS(=O)(=O)c2ccc(C#N)cc2)nc2cnc(C3CC3)cc21", "TEST_READOUT": "inhibition at 3.5 µM", "RESULT_UNIT": "%", "VAL": 65}
{"COMPOUND": "CCn1c([C@@H](C)NS(=O)(=O)c2ccc(C#N)cc2)nc2cnc(C3CC3)cc21 (stereo in doubt)", "TEST_READOUT": "inhibition at 3.5 µM", "RESULT_UNIT": "%", "VAL": 83.4}
{"COMPOUND": "CCn1c([C@@H](C)NS(=O)(=O)c2ccc(Cl)cc2)nc2cnccc21", "TEST_READOUT": "inhibition at 3.5 µM", "RESULT_UNIT": "%", "VAL": 93.8}
{"COMPOUND": "CCn1c(C(C)(C)NS(=O)(=O)c2ccc(F)cc2)nc2cnc(C(F)(F)F)cc21", "TEST_READOUT": "inhibition at 3.5 µM", "RESULT_UNIT": "%", "VAL": 82}
{"COMPOUND": "CCn1c(C(C)(C)NS(=O)(=O)c2ccc(F)cc2)nc2ccc(C(F)(F)F)cc21", "TEST_READOUT": "inhibition at 3.5 µM", "RESULT_UNIT": "%", "VAL": 88.8}
{"COMPOUND": "CCn1c(C(C)(C)NS(=O)(=O)c2ccc(C#N)cc2)nc2ncccc21", "TEST_READOUT": "inhibition at 3.5 µM", "RESULT_UNIT": "%", "VAL": 36.3}
{"COMPOUND": "CCn1c([C@@H](C)NS(=O)(=O)c2cc[n+]([O-])cc2)nc2ccc(C(F)(F)F)cc21", "TEST_READOUT": "inhibition at 3.5 µM", "RESULT_UNIT": "%", "VAL": 75.6}
{"COMPOUND": "CCn1c([C@@H](C)NS(=O)(=O)c2ccc(C)cc2)nc2ccc(C(F)(F)F)cc21", "TEST_READOUT": "inhibition at 3.5 µM", "RESULT_UNIT": "%", "VAL": 85.3}

P. CCn1c([C@@H](C)NS(=O)(=O)c2cccs2)nc2ccc(C(F)(F)F)cc21
Q. CCn1c([C@@H](C)NS(=O)(=O)c2ccc[n+]([O-])c2)nc2ccc(C(F)(F)F)cc21
Just curious, which one has the larger inhibition at 3.5 µM reading, P or Q ? Indicate your choice by writing its label.
P

----------
# TARGET_SYSTEM: Edg-1/S1P1 receptor (Homo sapiens)
# Construct: expressed in transfected cells; host or cells: human osteogenic sarcoma U2OS cells: Edg-1 Transfluor U2OS WT Clone #37 (assay I), Edg-1 Transfluor U2OS Clone #3 (assay II)
# ASSAY_SUMMARY: In vitro cell based receptor activation assay - Transfluor assay (assay I or II; beta-arrestin GFP relocalization after S1P stimulation)
# SETUP_CONDITIONS: at 3.50 μM (titrated from top concentration 10 μM)
TEST_READOUT: inhibition at 3.5 µM (%)

P. CCn1c([C@@H](C)NS(=O)(=O)c2ccc(C#N)nc2)nc2cnc(C(F)(F)F)cc21 [Example 148]
Q. CCn1c(C(C)(C)NS(=O)(=O)c2ccc(F)cc2)nc2cnc(C3CC3)cc21 [Example 186]
Given the two records P and Q , choose the one whose inhibition at 3.5 µM value is lower. Indicate your choice by writing its label.
Q

----------
# TARGET_SYSTEM: Edg-1/S1P1 receptor (Homo sapiens, UniProt P21453)
# Construct: expressed in transfected cells; host or cells: human osteogenic sarcoma U2OS cells: Edg-1 Transfluor U2OS WT Clone #37 (assay I), Edg-1 Transfluor U2OS Clone #3 (assay II)
# ASSAY_SUMMARY: In vitro cell based receptor activation assay - Transfluor assay (assay I or II; beta-arrestin GFP relocalization after S1P stimulation)
# SETUP_CONDITIONS: at 3.50 μM (titrated from top concentration 10 μM)
TEST_READOUT: inhibition at 3.5 µM (%)

{"COMPOUND": "CCn1c([C@@H](C)NS(=O)(=O)c2ccc(OC)c(OC)c2)nc2ccc(C(F)(F)F)cc21", "TARGET_SYSTEM": "Edg-1/S1P1 receptor (Homo sapiens, UniProt P21453)", "inhibition at 3.5 µM (%)": 79.4}

P. CCn1c(C(C)(C)NS(=O)(=O)c2ccc(C(N)=O)nc2)nc2ccc(C(F)(F)F)cc21
Q. CCn1c(C(C)(C)NS(=O)(=O)c2ccc(C#N)nc2)nc2ncccc21
Just curious, which one has the larger inhibition at 3.5 µM reading, P or Q ? Indicate your choice by writing its label.
P

A. CCn1c([C@@H](C)NS(=O)(=O)c2ccc(OC)cc2)nc2ccc(C(F)(F)F)cc21
B. CCn1c([C@@H](C)NS(=O)(=O)c2ccc(-c3ccccc3)cc2)nc2ccc(C(F)(F)F)cc21
Given the two records A and B , choose the one whose inhibition at 3.5 µM value is lower. Indicate your choice by writing its label.
B
(B: 19.8%, A: 91.4%)

----------
# TARGET_SYSTEM: Edg-1/S1P1 receptor (Homo sapiens)
# Construct: expressed in transfected cells; host or cells: human osteogenic sarcoma U2OS cells: Edg-1 Transfluor U2OS WT Clone #37 (assay I), Edg-1 Transfluor U2OS Clone #3 (assay II)
# ASSAY_SUMMARY: In vitro cell based receptor activation assay - Transfluor assay (assay I or II; beta-arrestin GFP relocalization after S1P stimulation)
# SETUP_CONDITIONS: at 3.30 μM (run with this as top concentration)
TEST_READOUT: inhibition at 3.3 µM (%)

{"MOLECULE": "CCn1cc(S(=O)(=O)N[C@H](C)c2nc3ccc(C(F)(F)F)cc3n2CC)cn1 [Example 121]", "RESULT_UNIT": "%", "inhibition at 3.3 µM": 74}
{"MOLECULE": "CCCn1c(C(C)NS(=O)(=O)c2ccc(Cl)cc2)nc2ccccc21 (stereo not shown) [Example 17]", "RESULT_UNIT": "%", "inhibition at 3.3 µM": 92.8}
{"MOLECULE": "CCn1c([C@@H](C)NS(=O)(=O)C2=Cc3ccccc3CC2)nc2ccc(C(F)(F)F)cc21 [Example 119]", "RESULT_UNIT": "%", "inhibition at 3.3 µM": 71.7}
{"MOLECULE": "CCn1c([C@@H](C)NS(=O)(=O)c2ccccc2)nc2ccc(C(F)(F)F)cc21 [Example 50]", "RESULT_UNIT": "%", "inhibition at 3.3 µM": 92.1}

Sourced from patent US20100029643A1
